# tested_system: cloned human H3 receptors (Homo sapiens, UniProt Q9Y5N1)
# Construct: expressed in transfected cells
# Sequence (Q9Y5N1 whole entry): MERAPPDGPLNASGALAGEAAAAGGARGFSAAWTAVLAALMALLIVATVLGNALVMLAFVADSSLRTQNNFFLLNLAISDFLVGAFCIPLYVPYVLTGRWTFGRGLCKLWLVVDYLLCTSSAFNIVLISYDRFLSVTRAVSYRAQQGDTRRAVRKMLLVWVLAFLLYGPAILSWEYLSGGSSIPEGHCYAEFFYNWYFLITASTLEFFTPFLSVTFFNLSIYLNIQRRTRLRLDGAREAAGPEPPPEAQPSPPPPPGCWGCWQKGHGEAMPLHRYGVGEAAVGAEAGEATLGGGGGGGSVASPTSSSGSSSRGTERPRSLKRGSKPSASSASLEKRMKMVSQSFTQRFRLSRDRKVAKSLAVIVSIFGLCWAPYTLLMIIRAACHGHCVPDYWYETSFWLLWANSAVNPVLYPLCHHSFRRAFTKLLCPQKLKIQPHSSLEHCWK
# test_details: H3 Receptor Binding (Human)
# protocol_conditions: cloned human H3 receptors stably expressed in SK-N-MC cells; average of the results obtained; read-out: Human H3 Ki
Structures can show the parent of a compound that is named as a salt.
endpoint_name: log10 of Ki (log10 of the value in nM)
# log10 transformed; quantity=Ki; unit=nM

Recorded results for 3 compounds are shown here.
>  <compound>
O=C(c1ccc(Oc2cccc(Cl)c2)nc1)N1CCCN(C2CCC2)CC1

>  <log10 of Ki>
0.00

$$$$
>  <compound>
O=C(c1ccc(Sc2ccccc2)cn1)N1CCCN(C2CCC2)CC1

>  <log10 of Ki>
0.48

$$$$
>  <compound>
O=C(c1ccc(Oc2cccc(Cl)c2)cn1)N1CCCN(C2CCC2)CC1 [Example 70, trifluoroacetic acid salt]

>  <log10 of Ki>
0.30

$$$$

Input: Tell me the measured log10 of Ki of `CC(C)N1CCCN(C(=O)c2ccc(Oc3cccc(F)c3)nc2)CC1` , please.
Output: 0.78

Input: Tell me the measured log10 of Ki of `Cc1cccc(Oc2ccc(C(=O)N3CCCN(C4CCC4)CC3)cn2)c1` , please.
Output: 0.00

Input: Tell me the measured log10 of Ki of Cc1cc(Oc2cccc(C(=O)N3CCCN(C(C)C)CC3)n2)ccc1Cl [Example 49, trifluoroacetic acid salt] , please.
Output: 2.06

Input: Tell me the measured log10 of Ki of `Cc1cc(Oc2ccc(C(=O)N3CCCN(C4CC4)CC3)cn2)ccc1Cl` , please.
Output: 0.70

Input: Tell me the measured log10 of Ki of `O=C(c1ccc(Oc2ccc(Cl)c(Cl)c2)nc1)N1CCCN(C2CC2)CC1` , please.
Output: 1.04

Values from patent US8940731B2
